Taken from patent US20250215039A1.

Please go through the items and note down their IC50.
system: cancer cell lines; test: Cancer cell proliferation activity (CellTiterGlo, 72 h); assay type: cell-based; conditions: Homo sapiens, SK-MEL-5, 72 h, SKMEL5 cell line, skin; 72 h; read-out: IC50

Req: // IC50 lookup, key: C[C@]1(CO)O[C@@H](n2cc(F)c(N)nc2=O)C[C@@H]1O [Cpd. No. 4]
Resp: > 50 µM

For the 6 compounds below, give their IC50 values.
1. COC[C@]1(CO)O[C@@H](n2cnc3c(N)nc(F)nc32)C[C@@H]1O [Cpd. No. 140]
2. CCC[C@]1(CO)O[C@@H](n2cnc3c(N)nc(F)nc32)C[C@@H]1O [Cpd. No. 129]
3. N#C[C@]1(CO)O[C@@H](n2cc(F)c(N)nc2=O)C[C@@H]1O [Cpd. No. 6]
4. Nc1nc(F)nc2c1ncn2[C@H]1C[C@H](O)[C@](CO)(CF)O1 [compound 150]
5. CC[C@]1(CO)O[C@@H](n2cnc3c(N)nc(F)nc32)C[C@@H]1O [Cpd. No. 1]
6. Cc1cn([C@H]2C[C@H](O)[C@@](C#N)(CO)O2)c(=O)[nH]c1=O [Cpd. No. 123]

Resp:
4.01 µM
3.17 µM
> 50 µM
> 50 µM
> 50 µM
> 50 µM

For the 3 compounds below, give their IC50 values.
1. CC[C@]1(CO)O[C@@H](n2cc(F)c(N)nc2=O)C[C@@H]1O [Cpd. No. 2]
2. C=C[C@]1(CO)O[C@@H](Nc2[nH]c(=O)ncc2Br)C[C@@H]1O [Cpd. No. 3]
3. CC[C@]1(CO)O[C@@H](n2cnc3c(N)nc(F)nc32)[C@H](O)[C@@H]1O [Cpd. No. 173]

Resp:
1: > 50 µM; 2: > 50 µM; 3: 0.42 µM

###

test system: cancer cell lines; test: Cancer cell proliferation activity (CellTiterGlo, 72 h); format: cell-based; conditions: Homo sapiens, NCI-H292, 72 h, NCIH292 (lung), 72 h; read-out: IC50 cell proliferation
Please go through the items and note down their IC50.
Answers are plain numbers, in nM.

Answered cases to consult:
Req: // IC50 lookup, key: Nc1nc(F)nc2c1ncn2[C@@H]1O[C@H](CO)[C@@H](O)[C@@H]1O
Resp: 8010

Req: // IC50 lookup, key: C[C@]1(CO)O[C@@H](n2ccc(N)nc2=O)[C@@H](O)[C@@H]1O
Resp: 5760

Req: // IC50 lookup, key: C[C@]1(CO)O[C@@H](n2cnc3c(N)nc(F)nc32)[C@H](O)[C@@H]1O
Resp: 830

For the 4 compounds below, give their IC50 values.
1. Nc1nc(F)nc2c1ncn2[C@H]1C[C@H](O)[C@@H](CO)O1
2. Nc1ccn([C@H]2C[C@H](O)[C@](CO)(CF)O2)c(=O)n1
3. Nc1nc(F)nc2c1ncn2[C@@H]1O[C@H](CO)[C@@H](O)[C@H]1O
4. Nc1nc(=O)n([C@H]2C[C@H](O)[C@](CO)(CF)O2)cc1F

Resp:
[2330, 920, 90, 114]

For the 2 compounds below, give their IC50 values.
1. Nc1nc(=O)n([C@H]2C[C@H](O)[C@@H](CO)O2)cc1F
2. CCC[C@]1(CO)O[C@@H](n2cnc3c(N)nc(F)nc32)[C@H](O)[C@@H]1O

Resp:
1. 19
2. 150
